Source listed as paper PMC12064818.

# measurement_target: FLuc-C-NLuc (firefly luciferase) (Photinus pyralis, UniProt P08659, form not given/L550V)
# Sequence (P08659 2-550 L550V, form open): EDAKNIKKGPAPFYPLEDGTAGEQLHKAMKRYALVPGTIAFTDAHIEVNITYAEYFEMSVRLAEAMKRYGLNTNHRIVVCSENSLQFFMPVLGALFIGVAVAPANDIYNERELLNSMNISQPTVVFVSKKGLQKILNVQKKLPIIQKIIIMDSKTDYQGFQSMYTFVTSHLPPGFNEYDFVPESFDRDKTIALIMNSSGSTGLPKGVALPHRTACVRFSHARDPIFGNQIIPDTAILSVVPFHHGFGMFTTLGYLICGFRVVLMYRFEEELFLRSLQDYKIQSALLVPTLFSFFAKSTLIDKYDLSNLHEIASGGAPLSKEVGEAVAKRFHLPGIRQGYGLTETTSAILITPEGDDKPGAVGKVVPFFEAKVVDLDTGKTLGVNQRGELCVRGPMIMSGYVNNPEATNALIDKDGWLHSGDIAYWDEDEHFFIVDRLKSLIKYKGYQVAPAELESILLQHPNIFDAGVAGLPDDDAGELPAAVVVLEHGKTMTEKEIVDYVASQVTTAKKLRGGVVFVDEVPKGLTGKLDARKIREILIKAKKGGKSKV
# experiment: SDR assay, FLuc-C-NLuc
# applied_conditions: 1 nM FLuc-C-NLuc; normalized activity; Log [Compound], M -8.30
The label yes is reserved for SDR No ATP strictly under 6; no covers values equal to or above it.

### Prompt Does the reported SDR No ATP of Cc1ccc(-n2ncc3c(N4CCCCCC4)ncnc32)cc1 [compound 00139018] stay below 6?
### Response yes

### Prompt Does the reported SDR No ATP of CC1CCCN(c2ncnc3c2cnn3-c2ccccc2)C1 (centres unmarked) [compound 00081381] stay below 6?
### Response yes

### Prompt Does the reported SDR No ATP of CNC(=O)c1cccc2c1CCN2C(=O)Nc1ccc(C)cc1 [compound 00430160] stay below 6?
### Response yes

### Prompt Does the reported SDR No ATP of O=C(O)c1cccc2c1CCN2C(=O)Nc1ccc(F)cc1 [compound 00432687] stay below 6?
### Response no

### Prompt Does the reported SDR No ATP of O=C(O)CCSc1nnc(-c2ccc(Cl)cc2Cl)o1 [compound 00103142] stay below 6?
### Response yes

### Prompt Does the reported SDR No ATP of CC(CNC(=O)C1CCN(C(=O)c2ncn3c2COC(c2ccccc2)C3)CC1)c1ccccc1 (centres unmarked) [compound 00449795] stay below 6?
### Response yes

### Prompt Does the reported SDR No ATP of Fc1ccc(-c2cn3cc(Cc4ccccc4)sc3n2)cc1 [compound 00102110] stay below 6?
### Response no
